Test system: TNF-α
Assay: TNF-α in rat paw tissue, FCA model (ELISA)
Type: in vivo
Conditions: termination day

{"columns": ["compound", "assayed-target", "% Inhibition (TNF-α)"],
 "data": [
  ["Nc1c2c(nc3sc4c(c13)CCC4)CCCC2", "TNF-α", "38.03 ± 9.73%"],
  ["COc1ccc2c(c1)c(CC(=O)O)c(C)n2C(=O)c1ccc(Cl)cc1 [Indomethacin, reference compound]", "TNF-α", "29.06 ± 0.06%"],
  ["Cc1sc2nc3c(c(N)c2c1C)CCCCC3", "TNF-α", "42.9 ± 3.78%"],
  ["Nc1c2c(nc3sc4c(c13)CCC4)CCCCC2", "TNF-α", "37.42 ± 5.57%"]
]}

====

Biological target: porcine pancreatic α-amylase (Sus scrofa, UniProt P00690)
Construct: α-amylase [EC 3.2.1.1) Type VI B: from porcine pancreas]; purchased Sigma Chemical Co., St Louis, Mo., USA; host or cells: porcine pancreas (natural source)
Sequence (P00690 16-511): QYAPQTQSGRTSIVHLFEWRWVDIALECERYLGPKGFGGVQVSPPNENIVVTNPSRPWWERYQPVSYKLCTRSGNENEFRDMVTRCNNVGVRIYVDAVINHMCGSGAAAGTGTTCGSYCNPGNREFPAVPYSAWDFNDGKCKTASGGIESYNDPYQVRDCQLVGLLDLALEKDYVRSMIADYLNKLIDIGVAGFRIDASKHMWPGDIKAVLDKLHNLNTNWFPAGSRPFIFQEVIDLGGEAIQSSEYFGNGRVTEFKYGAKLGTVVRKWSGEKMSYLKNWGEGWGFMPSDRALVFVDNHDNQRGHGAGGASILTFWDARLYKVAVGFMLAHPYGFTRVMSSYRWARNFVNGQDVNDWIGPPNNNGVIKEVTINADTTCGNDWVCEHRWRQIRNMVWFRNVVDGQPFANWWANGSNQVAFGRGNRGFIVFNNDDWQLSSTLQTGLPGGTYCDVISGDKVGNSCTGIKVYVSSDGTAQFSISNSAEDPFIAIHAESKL
Assay: α-Amylase inhibition assay
Type: biochemical
Settings: 0.05 h; 10 mg per ml; calculated from maltose released vs respective control

{"columns": ["compound", "output-unit", "inhibition at 10000 µg/mL (stock)"],
 "data": [
  ["Nc1c2c(nc3sc4c(c13)CCC4)CCCCC2", "%", 31.5],
  ["Nc1c2c(nc3sc4c(c13)CCC4)CCCC2", "%", -3.06],
  ["Cc1sc2nc3c(c(N)c2c1C)CCCCC3", "%", -2.01],
  ["CC1CCc2c(nc3sc4c(c3c2N)CCCC4)C1 (stereo not drawn)", "%", -0.765],
  ["Nc1c2c(nc3sc4c(c13)CCCC4)CCCC2", "%", 26.2],
  ["Nc1c2c(nc3sc4c(c13)CCCCC4)CCC2", "%", -16.2]
]}

====

Assay: Acute oral toxicity, main study in rats
Settings: both sexes, Albino Wistar, rat, in vivo, single oral dose, read-out: Maximum tolerated dose

{"columns": ["smiles-record", "MTD at 14 days"],
 "data": [
  ["Cc1sc2nc3c(c(N)c2c1C)CCCCC3", "> 2000 mg/kg"],
  ["Nc1c2c(nc3sc4c(c13)CCC4)CCCCC2", "> 2000 mg/kg"],
  ["Nc1c2c(nc3sc4c(c13)CCC4)CCCC2", "1060 mg/kg"]
]}
